biological target: Cytochrome P450 2D6 (Homo sapiens) (UniProt P10635); assay: Cytochrome panel assay with activity outcomes; conditions: recombinant CYP, pro-luciferin dealkylation, luminescence, p450-cyp2d6; series mostly up to 57.1 µM
Sequence (P10635 whole entry, looked up): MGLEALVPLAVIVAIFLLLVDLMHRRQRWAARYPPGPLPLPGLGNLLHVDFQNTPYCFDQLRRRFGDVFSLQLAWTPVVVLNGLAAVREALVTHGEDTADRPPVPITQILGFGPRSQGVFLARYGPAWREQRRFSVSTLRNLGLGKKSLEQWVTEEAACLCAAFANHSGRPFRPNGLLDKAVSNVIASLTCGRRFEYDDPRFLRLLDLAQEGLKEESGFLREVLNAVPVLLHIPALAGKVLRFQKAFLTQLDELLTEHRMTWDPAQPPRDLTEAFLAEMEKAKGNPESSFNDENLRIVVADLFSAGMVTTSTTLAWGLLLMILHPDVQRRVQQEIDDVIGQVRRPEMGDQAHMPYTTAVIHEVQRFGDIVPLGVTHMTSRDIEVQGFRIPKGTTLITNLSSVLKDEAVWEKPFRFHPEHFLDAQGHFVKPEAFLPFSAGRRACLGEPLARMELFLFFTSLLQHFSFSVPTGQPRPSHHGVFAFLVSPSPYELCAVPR
The campaign covered roughly 16,000 compounds. About 2,600 (16%) were called active. About 20% were inconclusive and are not listed. The call rests on the fitted dose curve; in most records, active means well fitted curve in the direction sought with a large enough effect; inconclusive means small, poorly fitted or top-dose-only effect, or effect the other way; inactive means no such curve, though single readings can be large or run the other way. Not all results are given here.
Possible outcomes: active, inactive

INSERT INTO assay_data (compound, studysystem, assignedclass) VALUES
  ('CCCN=C(N)NCCC[C@H](N)C(=O)O', 'Cytochrome P450 2D6 (Homo sapiens) (UniProt P10635)', 'active'),
  ('COC(=O)N1CCC2(CCCN(Cc3ccc(C#N)cc3)C2)CC1', 'Cytochrome P450 2D6 (Homo sapiens) (UniProt P10635)', 'active'),
  ('NC(=NCCC[C@H](N)C(=O)O)NO', 'Cytochrome P450 2D6 (Homo sapiens) (UniProt P10635)', 'inactive'),
  ('COc1cccc(Cn2c(=O)c(CCc3ccccc3)nc3cncnc32)c1', 'Cytochrome P450 2D6 (Homo sapiens) (UniProt P10635)', 'inactive'),
  ('Cc1ccc(Oc2nn[nH]n2)cc1', 'Cytochrome P450 2D6 (Homo sapiens) (UniProt P10635)', 'inactive'),
  ('Cc1cc(C)cc(-n2nnc(C(=O)NCc3ccccc3Cl)c2N)c1', 'Cytochrome P450 2D6 (Homo sapiens) (UniProt P10635)', 'inactive'),
  ('Cc1nc2ccccn2c1/C(O)=C1\C(=O)C(=O)N(CCN2CCOCC2)C1c1cccnc1 (centres undefined)', 'Cytochrome P450 2D6 (Homo sapiens) (UniProt P10635)', 'inactive'),
  ('Cc1ccccc1Oc1ccc(-c2nc(N)nc(N)n2)cc1', 'Cytochrome P450 2D6 (Homo sapiens) (UniProt P10635)', 'inactive'),
  ('CC(=O)N1CCC2(CC1)CN(Cc1ccccc1)C2', 'Cytochrome P450 2D6 (Homo sapiens) (UniProt P10635)', 'inactive');
